Here the recorded pKa is given for each entry.
protocol text: Ionisation constant (pKa)
Assay type: physicochemical
Quick one: just the number, no unit, thanks!

INSERT INTO results (compound, endpoint_result) VALUES
  ('CNC(=C[N+](=O)[O-])NCCSCc1ccc(CN(C)C)o1', 8.47),
  ('O=c1n(CCCN2CCN(c3cccc(Cl)c3)CC2)nc2ccccn12', 6.79),
  ('CNS(=O)(=O)Cc1ccc2[nH]cc(CCN(C)C)c2c1', 9.5),
  ('CN1CCCC(n2nc(Cc3ccc(Cl)cc3)c3ccccc3c2=O)CC1 (configuration not stated)', 9.54),
  ('Cc1ccc(O)c([C@H](CCN(C(C)C)C(C)C)c2ccccc2)c1', 9.87),
  ('CN/C(=C\[N+](=O)[O-])NCCSCc1csc(CN(C)C)n1', 6.59),
  ('CN/C(=N/CCSCc1nc[nH]c1C)NC#N', 6.97),
  ('CCc1nn(CCCN2CCN(c3cccc(Cl)c3)CC2)c(=O)n1CCOc1ccccc1', 6.79);

--- query ---
pKa recorded for this compound, CCN(CC)CCCC(C)Nc1c2ccc(Cl)cc2nc2ccc(OC)cc12 (configuration not stated) , is 10.2

###

study conditions: pH 7.4
Description: Fraction ionized (pH 7.4)
endpoint name: Fraction ionised

Examples with answers:
INSERT INTO results (molecule, endpoint_result) VALUES
  ('C[C@]12C=CC(=O)C=C1CC[C@@H]1[C@@H]2[C@@H](O)C[C@@]2(C)[C@H]1CC[C@]2(O)C(=O)CO', 0),
  ('CNS(=O)(=O)Cc1ccc2[nH]cc(CCN(C)C)c2c1', 0.992),
  ('CCOC(=O)C1=C(C)NC(C)=C(C(=O)OC)C1c1cccc(Cl)c1Cl (centres undefined)', 0);

Now look at this entry.
CCc1nn(CCCN2CCN(c3cccc(Cl)c3)CC2)c(=O)n1CCOc1ccccc1 yielded Fraction ionised of 0.197

###

protocol text: clinical
study conditions: human, in vivo, iv
Description: Volume of distribution in man (IV dose)
Rule for this label: Yes means Vd is less than 1 L/kg; No means Vd is at least 1 L/kg.

Reference set, count: 10
INSERT INTO results (molecule, class_name) VALUES
  ('O=C(CCCN1CCC(O)(c2ccc(Cl)cc2)CC1)c1ccc(F)cc1', 'No'),
  ('Cn1c(=O)c2c(ncn2C)n(C)c1=O', 'Yes'),
  ('CCCC(=O)Nc1ccc(OCC(O)CNC(C)C)c(C(C)=O)c1 (stereo not drawn)', 'No'),
  ('CCc1nn(CCCN2CCN(c3cccc(Cl)c3)CC2)c(=O)n1CCOc1ccccc1', 'Yes'),
  ('CCN(CC)CCNC(=O)c1cc(Cl)c(N)cc1OC [METOCLOPRAMIDE]', 'No'),
  ('CN1CCCC(n2nc(Cc3ccc(Cl)cc3)c3ccccc3c2=O)CC1 (stereo not drawn)', 'No'),
  ('CNC(=C[N+](=O)[O-])NCCSCc1ccc(CN(C)C)o1', 'No'),
  ('CCC(C)n1ncn(-c2ccc(N3CCN(c4ccc(OCC5COC(Cn6cncn6)(c6ccc(Cl)cc6Cl)O5)cc4)CC3)cc2)c1=O (stereo not drawn)', 'No'),
  ('CN1C[C@H](C(=O)N[C@]2(C)O[C@@]3(O)[C@@H]4CCCN4C(=O)[C@H](Cc4ccccc4)N3C2=O)C=C2c3cccc4[nH]cc(c34)C[C@H]21', 'No'),
  ('O=C(NCC1CCCCN1)c1cc(OCC(F)(F)F)ccc1OCC(F)(F)F (stereo not drawn) [FLECAINIDE]', 'No');

Exercise: Please let me know if Cc1ncc([N+](=O)[O-])n1CCO shows Vd below 1 L/kg.
Solution: Yes

Exercise: Does the reported Vd of OC(Cn1cncn1)(Cn1cncn1)c1ccc(F)cc1F stay below 1 L/kg?
Solution: Yes

Exercise: Field: below-cutoff. Rule: recorded Vd strictly less than 1 L/kg. Subject: C[C@]12C=CC(=O)C=C1CC[C@@H]1[C@@H]2C(=O)C[C@@]2(C)[C@H]1CC[C@]2(O)C(=O)CO
Solution: Yes

Exercise: # check: Vd < 1 L/kg for O=C1CN=C(c2ccccn2)c2cc(Br)ccc2N1
Solution: Yes

Exercise: Confirm or reject: Vd of CN(C)CCC(c1ccc(Cl)cc1)c1ccccn1 (stereo not drawn) lies strictly below 1 L/kg
Solution: No

Exercise: Is Vd strictly under 1 L/kg for the entry Cc1nnc2n1-c1ccc(Cl)cc1C(c1ccccc1)=NC2 ?
Solution: Yes

Exercise: Is Vd strictly under 1 L/kg for the entry COc1cc2c(c(OC)c1OC)-c1ccc(OC)c(=O)cc1[C@@H](NC(C)=O)CC2 ?
Solution: No

###

study conditions: pH 7.4
endpoint name: Fraction ionised
Give only the figure.

Please review the entries below; each comes with its answer.
INSERT INTO assay_data (compound, endpoint_name, endpoint_result) VALUES
  ('C=C[C@H]1C[N@@]2CC[C@H]1C[C@@H]2[C@@H](O)c1ccnc2ccc(OC)cc12 [QUINIDINE]', 'Fraction ionised', 0.817),
  ('O=C(NCC1CCCCN1)c1cc(OCC(F)(F)F)ccc1OCC(F)(F)F (stereo not drawn) [FLECAINIDE]', 'Fraction ionised', 0.988);

Query compound follows.
The reported Fraction ionised of the compound CN1CCCC(n2nc(Cc3ccc(Cl)cc3)c3ccccc3c2=O)CC1 (stereo not drawn) [AZELASTINE] was 0.993

###

protocol text: in vitro
study conditions: tissues
Description: Unbound fraction (tissues)
endpoint name: fraction unbound
Output: the number by itself.

Here are 6 compounds together with their reported answers.
INSERT INTO results (compound, endpoint_name, endpoint_result) VALUES
  ('Cc1nnc2n1-c1ccc(Cl)cc1C(c1ccccc1)=NC2', 'fraction unbound', 0.881),
  ('C[C@]12C=CC(=O)C=C1CC[C@@H]1[C@@H]2C(=O)C[C@@]2(C)[C@H]1CC[C@]2(O)C(=O)CO', 'fraction unbound', 0.113),
  ('CCCC(=O)Nc1ccc(OCC(O)CNC(C)C)c(C(C)=O)c1 (stereo not given)', 'fraction unbound', 0.273),
  ('Cn1c(=O)c2c(ncn2C)n(C)c1=O', 'fraction unbound', 0.543),
  ('CN(C)CCCN1c2ccccc2CCc2ccccc21', 'fraction unbound', 0.002),
  ('Cc1cc(=O)n(-c2ccccc2)n1C [ANTIPYRINE]', 'fraction unbound', 0.825);

# context switch: different compound, same fraction unbound
Sure, the documented fraction unbound for C[C@]12CC[C@@H]3c4ccc(O)cc4CC[C@H]3[C@@H]1CC[C@@H]2O is 0.005

###

protocol text: in vitro
endpoint name: fraction unbound

Past entries and their recorded results:
INSERT INTO assay_data (compound, endpoint_name, endpoint_result) VALUES
  ('COC(=O)C1=C(C)NC(C)=C(C(=O)OC)C1c1ccccc1[N+](=O)[O-]', 'fraction unbound', 0.023),
  ('Clc1cccc(Cl)c1N=C1NCCN1', 'fraction unbound', 0.158),
  ('C[C@@H]1C[C@H]2[C@@H]3CCC4=CC(=O)C=C[C@]4(C)[C@@]3(F)[C@@H](O)C[C@]2(C)[C@@]1(O)C(=O)CO', 'fraction unbound', 0.182),
  ('COc1cc(Cc2cnc(N)nc2N)cc(OC)c1OC', 'fraction unbound', 0.166),
  ('COCCc1ccc(OCC(O)CNC(C)C)cc1 (stereo not drawn)', 'fraction unbound', 0.084);

Note to self: fraction unbound recorded for CCN(CC)CCNC(=O)c1cc(Cl)c(N)cc1OC [METOCLOPRAMIDE] was 0.07

The compound listed as O=C(CCCN1CCC(O)(c2ccc(Cl)cc2)CC1)c1ccc(F)cc1 shows fraction unbound equal to 0.002

Memo: CN(C)CCC(c1ccc(Cl)cc1)c1ccccn1 (stereo not drawn) , reported fraction unbound: 0.037

compound CC(=O)O[C@H]1C(=O)[C@@]2(C)[C@H]([C@H](OC(=O)c3ccccc3)[C@]3(O)C[C@H](OC(=O)[C@H](O)[C@@H](NC(=O)c4ccccc4)c4ccccc4)C(C)=C1C3(C)C)[C@]1(OC(C)=O)CO[C@@H]1C[C@@H]2O , fraction unbound observed: 0.005

What the record says about CN1CCC[C@H]1c1cccnc1 : fraction unbound is 0.15

###

protocol text: clinical
study conditions: human, in vivo, iv
Quick list: Vd per entry.
Number only, in L/kg; omit the unit.

// known answers, use as guide
INSERT INTO measurements (compound, endpoint_result) VALUES
  ('CNCCCN1c2ccccc2CCc2ccccc21', 20),
  ('CC(C)NCC(O)COc1cccc2ccccc12 (stereo not given)', 4.3),
  ('CNS(=O)(=O)Cc1ccc2[nH]cc(CCN(C)C)c2c1', 0.65),
  ('COCCc1ccc(OCC(O)CNC(C)C)cc1 (stereo not given)', 4.2);

response.value for CCN(CC)CCCC(C)Nc1c2ccc(Cl)cc2nc2ccc(OC)cc12 (stereo not given) (field: Vd) = 223

For record CC(=O)CCCCn1c(=O)c2c(ncn2C)n(C)c1=O the listed Vd is 4.2

The compound identified as COC(=O)C1=C(C)NC(C)=C(C(=O)OC)C1c1ccccc1[N+](=O)[O-] registered its Vd at 0.78

Reported Vd ( COc1ccc([C@@H]2Sc3ccccc3N(CCN(C)C)C(=O)[C@@H]2OC(C)=O)cc1 ) = 3.1

Measured Vd, CC(=O)O[C@H]1C(=O)[C@@]2(C)[C@H]([C@H](OC(=O)c3ccccc3)[C@]3(O)C[C@H](OC(=O)[C@H](O)[C@@H](NC(=O)c4ccccc4)c4ccccc4)C(C)=C1C3(C)C)[C@]1(OC(C)=O)CO[C@@H]1C[C@@H]2O : 2.4

The reported Vd of the compound CN1CCC[C@H]1c1cccnc1 was 2.6
